# tested_system: T1, recombinant human IL-23R/Fc chimera (human, UniProt Q5VWK5 24-353)
# T1 construct: range 24-353; bought (R&D Systems Cat. No. 1400-IR-050); also called rhIL23R-Fc; IL-23R/Fc fusion protein; not shown: human IgG1 Fc, residues 100-330
# T1 sequence (looked up): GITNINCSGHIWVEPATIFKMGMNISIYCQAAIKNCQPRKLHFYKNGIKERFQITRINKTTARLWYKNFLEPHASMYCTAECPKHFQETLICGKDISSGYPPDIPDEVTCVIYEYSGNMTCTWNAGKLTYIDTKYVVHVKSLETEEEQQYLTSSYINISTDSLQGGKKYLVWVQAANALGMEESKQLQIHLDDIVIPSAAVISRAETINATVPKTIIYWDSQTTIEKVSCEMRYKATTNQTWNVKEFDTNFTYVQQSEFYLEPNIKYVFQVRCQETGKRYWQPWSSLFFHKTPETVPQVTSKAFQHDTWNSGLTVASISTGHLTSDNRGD
# assay_comment: competitive ELISA against IL-23 (50 ng/well) on coated IL-23R-Fc
IC50 values, listed per item
endpoint_name: IC50

1. SGASWVQYWVQR (also called peptide number 1) [synthetic polypeptide no. 1]
6250 to 12500 nM
2. AMTWEDWWLYGR (also called peptide number 23) [synthetic polypeptide no. 23]
0 to 1560 nM
3. NWATYWQLRHQT (also called peptide number 9) [synthetic polypeptide no. 9]
~3000 nM
4. DDWMQYWRQQVR [synthetic polypeptide no. 27]
~1560 nM
